Parameter: IC50. Scope: all listed entries.
Target Under Test: Human immunodeficiency virus type 1 reverse transcriptase (Human immunodeficiency virus 1, UniProt Q72547)
Condition Description: read-out: IC50 (converted)
Structures can show the parent of a compound that is named as a salt.

# example entries with known answers
C[C@H](O)C1=C[C@@]2(C=C[C@@H]3C(C(=O)O)=CO[C@@H](O[C@@H]4O[C@H](CO)[C@@H](O)[C@H](O)[C@H]4O)[C@@H]32)OC1=O
> 438 µM
COC(=O)C1=CO[C@@H](C)[C@@H]2CN3CCc4c([nH]c5ccc(OC)cc45)[C@@H]3C[C@H]12 [ARICINE]
> 523 µM
C1CCN2C[C@]34C[C@H](C[C@@H]5CCCN([C@@H]6CCC[C@@H]3N6)[C@H]54)[C@H]2C1 [PANAMINE DIPERCHLORATE]
> 387 µM
C/C=C1/C[C@@H](C)[C@@](C)(O)C(=O)OCC2=CCN3CC[C@@H](OC1=O)[C@@H]23 [SENECIONINE]
> 596 µM

Complete the entry with IC50 for COc1ccc2c(c[n+](C)c3c4cc5c(cc4ccc23)OCO5)c1OC [CHELERYTHRINE CHLORIDE]
< 521 µM

Complete the entry with IC50 for C[C@H]1/C(=C/C(=O)OCCN(C)C)CC[C@H]2[C@H]1C(=O)C[C@H]1C(C)(C)[C@@H](OS(=O)(=O)O)CC[C@]21C [CASSAINE SULFATE]
> 412 µM

Complete the entry with IC50 for `COC(=O)C1=CO[C@@H](O[C@@H]2O[C@H](CO)[C@@H](O)[C@H](O)[C@H]2O)[C@H]2[C@@H]1C=C[C@@]21C=C([C@H](C)OC(=O)/C=C/c2ccc(O)cc2)C(=O)O1`
> 324 µM

Complete the entry with IC50 for C=C[C@H]1C[N@@]2CC[C@H]1C[C@@H]2[C@@H](O)c1ccnc2ccccc12 [CINCHONINE]
> 679 µM

Complete the entry with IC50 for COC(=O)[C@H]1[C@H]2C[C@@H]3c4[nH]c5ccccc5c4CCN3C[C@H]2C[C@@H](OC(=O)c2cc(OC)c(OC)c(OC)c2)[C@@H]1OC [DESERPIDINE]
> 346 µM

Complete the entry with IC50 for COc1cc2c(c3c1/c(=N\N=c1/c4ccccc4n(C)c4c5c(cc(OC)c14)OC(C)(C)C=C5)c1ccccc1n3C)C=CC(C)(C)O2 [ACRONYCINE AZINE]
> 313 µM

Complete the entry with IC50 for C[C@H]1C(=O)O[C@@H]2CCN3CC=C(COC(=O)[C@](C)(O)[C@]1(C)O)[C@H]23 [MONOCROTALINE]
> 615 µM

Complete the entry with IC50 for O=C(/C=C/c1ccc(O)cc1)OC[C@H]1O[C@@H](Oc2c(-c3ccc(O)cc3)oc3cc(O)cc(O)c3c2=O)[C@H](O)[C@@H](O)[C@@H]1O [TILIROSIDE]
< 336 µM

Complete the entry with IC50 for CC(C)=CCC[C@](C)(O[C@@H]1O[C@H](CO)[C@@H](O)[C@H](O)[C@H]1O)[C@H]1CC[C@]2(C)[C@@H]1[C@H](O)C[C@@H]1[C@@]3(C)CC[C@H](O)C(C)(C)[C@@H]3[C@@H](O[C@@H]3O[C@H](CO)[C@@H](O)[C@H](O)[C@H]3O[C@@H]3O[C@@H](C)[C@H](O)[C@@H](O)[C@H]3O)C[C@]12C [GINSENOSIDE RE]
> 211 µM

Complete the entry with IC50 for CC(=O)N[C@H]1[C@@H](O[C@H]2[C@H](O)[C@@H](O)[C@H](O[C@H]3[C@H](CS(=O)(=O)O)[C@@H](OS(=O)(=O)O)[C@@H](O[C@H]4[C@H](O)[C@@H](OS(=O)(=O)O)C(O)O[C@H]4C(=O)O)O[C@@H]3O)O[C@@H]2C(=O)O)O[C@H](COS(=O)(=O)O)[C@@H](O)[C@@H]1O (some centres undefined) [SODIUM HEPARIN]
> 192 µM
